system: MDA-MB-435/LCCMDR1; test: SRB cytotoxicity assay, multidrug-resistant MDA-MB-435/LCCMDR1 melanoma cells; type: cell-based, human; details: Homo sapiens; Table 14D; read-out: IC50 ± SEM MDA-MB-435/LCC6MDR1
recorded_metric: pIC50
Give bare numbers, as −log10 of the molar value.

Query: Tell me its pIC50 given COc1cc(C(=O)c2nc(-c3cc(OC)c(OC)c(OC)c3)c[nH]2)cc(OC)c1OC [70q] as the entry.
Reply: 6.68

====

assay: Metabolic stability in dog liver microsomes; assay type: in vitro ADME; conditions: dog, dog liver microsomes, pH 7.4; Table 20; read-out: Half life in Dog liver microsome
Exercise: for every item that follows, state its recorded half-life at 0.5 μM.
Answers are plain numbers, in min.

Some solved cases for reference:
molecule	half-life at 0.5 μM / min
COc1cc(C(=O)c2cn(C)c(-c3ccc(C)cc3)n2)cc(OC)c1OC	46
c1cc2ccc(-c3ccc4[nH]ccc4c3)cc2c(-c2ccc3[nH]ccc3c2)n1	30
Fc1ccc(-c2nccc3ccc(-c4ccc5[nH]ccc5c4)cc23)cc1	29

Can you give me half-life at 0.5 μM for all of these, one by one?
1. COc1cc(C(=O)c2csc(-c3ccccc3)n2)cc(OC)c1OC
2. COc1cc(-c2nccc3ccc(-c4ccc5[nH]ccc5c4)cc23)cc(OC)c1OC

Reply:
1: 19; 2: 13

====

test: in vivo; details: male, ICR, mouse, plasma, ip, 5 mg/kg
Give measured Cmax for each item. Keep answers brief.
One number for each entry, in ng/mL.

molecule	Cmax / ng/mL
Fc1ccc(-c2nccc3ccc(-c4ccc5[nH]ccc5c4)cc23)cc1 [6c]	1100
COc1cc(-c2nccc3ccc(-c4ccc5[nH]ccc5c4)cc23)cc(OC)c1OC [6a]	678

Query: // Input: c1cc2ccc(-c3ccc4[nH]ccc4c3)cc2c(-c2ccc3[nH]ccc3c2)n1 [6b, 1,7-Bis-(1H-indol-5-yl)-isoquinoline] . Output its Cmax only.
Reply: 1500

====

test: Metabolic stability in dog liver microsomes; assay type: in vitro ADME; details: dog, dog liver microsomes, pH 7.4; Table 20; read-out: Half life in Dog liver microsome
recorded_metric: half-life at 0.5 μM (min)
Numbers only, in min.

Reference set (2 entries):
molecule	half-life at 0.5 μM / min
COc1cc(C(=O)c2csc(-c3ccc(O)cc3)n2)cc(OC)c1OC	30
COc1cc(C(=O)c2c[nH]c(-c3ccc(C)cc3)n2)cc(OC)c1OC [12da]	17

Let us move to another entry and its half-life at 0.5 μM.
Query: Identify the reported half-life at 0.5 μM for the following entry. COc1cc(C(=O)c2c[nH]c(-c3ccc(Cl)cc3)n2)cc(OC)c1OC [12fa]
Reply: 26
